Parameter % Inhibition: see the listing below.
test system: P. falciparum stage V gametocytes; set-up: BacTiter-Glo ATP luminescence viability of purified stage V gametocytes in 384-well plates, per cent inhibition versus DMSO; conditions: 48 h, 5 µM; inhibitor
Among all 13,000 compounds or so, about 3,200 (25%) showed an effect of 50% or more. The list shows a part of the results.
observation_type: % Inhibition (%)

1) O=C(NC1CCN(Cc2ccccc2)CC1)c1cc(-c2ccncc2)c(-c2ccc(Cl)c(O)c2)o1 = 2.681
2) CCCCCCCCCCNCC(O)c1ccc(O)c(C(=O)OC)c1 (centres unmarked) = 1.141
3) CCCCCCCn1c(=N)n(CC(O)c2ccc(Cl)c(Cl)c2)c2ccccc21 (centres unmarked) = 113.9
4) Cc1[nH]c2cc(F)ccc2c1C1=CCN(CCCCC2(C)C(=O)Nc3ccccc32)CC1 (centres unmarked) = -43.4
5) O=C(c1ccccc1)C1CC1CN1CC=C(c2c[nH]c3ccccc23)CC1 (centres unmarked) = -5.765
6) COc1ccc(C(=O)C2CC2CN2CC=C(c3c[nH]c4ccc(OC)nc34)CC2)cc1 (centres unmarked) = 84.74
7) OC(CNc1ccnc(Nc2ccc(Cl)cc2)n1)c1ccc(C(F)(F)F)cc1 (centres unmarked) = -19.72
8) c1ccc(CSC2=NNC(c3ccccn3)S2)cc1 (centres unmarked) = 99.43
9) CN(CCN(C)CC(O)c1ccc(Cl)c(Cl)c1)CC(O)c1ccc(Cl)c(Cl)c1 (centres unmarked) = -33.12
10) Cc1ccccc1C1CCN(C2CCC(NC(=O)/C=C/c3cccc(F)c3)CC2)CC1 (centres unmarked) = -47.31
11) CN(C)CCn1c(=N)n(CC(O)c2ccc(Cl)c(Cl)c2)c2ccccc21 (centres unmarked) = 59.92
12) CCN(CC)CCn1c(=N)n(CC(O)c2ccc(Cl)c(Cl)c2)c2ccccc21 (centres unmarked) = 86.67
13) CCOC(=O)C1=C(C)N=c2sc(=Cc3cc(Cl)ccc3O)c(=O)n2C1c1ccc(OC)cc1 (centres unmarked) = -5.89
14) Cc1cc(C(=O)NC2CCN(CC3(c4ccc(Cl)cc4)CCC3)CC2)on1 = 85.33
15) COc1ccc(NC(=O)C2c3ccccc3C(=O)N(CC(C)C)C2c2cccs2)cc1OC (centres unmarked) = 95.75
16) O=C(Nc1ccnc2ccccc12)NC1CCN(CCc2ccccc2)CC1 = 38.02
17) O=C(C=Cc1ccc(Cl)c(Cl)c1)NC1CCN(CCc2ccccc2)CC1 = 3.334
18) COc1cc(OC)c(NC(=O)Nc2ccnc3ccccc23)cc1Cl = 15
19) Cc1[nH]c2ccccc2c1C1=CCN(CCCCC2(C)C(=O)Nc3ccccc32)CC1 (centres unmarked) = -83.27
20) COc1ccc2[nH]cc(C3=CCN(CC4CC4C(=O)c4ccccc4)CC3)c2n1 (centres unmarked) = -1.485
21) NC(N)=NN=Cc1cc2ccccc2c2ccccc12 = 48.28
22) Cn1nccc1C(=O)NCCNCc1ccc(-c2ccc(-c3nc4ccccc4[nH]3)s2)cc1.O=C(O)C(F)(F)F = -2.407
23) CCOC(=O)C1=C(C)N=c2sc(=Cc3cc(Cl)ccc3O)c(=O)n2C1c1ccc2c(c1)OCO2 (centres unmarked) = 66.04

---

system: P. falciparum stage V gametocytes; design: BacTiter-Glo ATP luminescence viability of purified stage V gametocytes in 384-well plates, per cent inhibition versus DMSO; conditions: 48 h, 5 µM; inhibitor
Hit rate of the full screen: of about 13,000 compounds, about 3,200 (25%) showed an effect of 50% or more. Some of the results follow.
observation_type: % Inhibition

1) COc1ccc2ncc(F)c(CCN3C[C@H](CNCc4cc(C#N)c5c(c4)OCCO5)[C@H](O)C3)c2n1 = 16.8%
2) O=C(CN1C(=O)CC1S(=O)(=O)Cc1ccco1)NCCCCCCc1ccc(F)cc1 (stereo not shown) = 21.56%
3) CCc1cc(CNC2CCN(CCc3c(F)cnc4ccc(OC)nc34)CC2)cc2c1OCCO2 = 31.48%
4) COc1ccc2ncc(F)c(CCN3CC(O)C(CNCc4ccc5c(c4)OCCO5)C3)c2n1 (stereo not shown) = 55.46%

Data origin, for the record: paper PMC4552634
